biological target: β2-adrenergic receptor (B2-AR) (Homo sapiens, UniProt P07550); construct: expressed in transfected cells; test: cAMP Gs dynamic HTRF assay, cells expressing β2-adrenergic receptor; type: cell-based; details: CHO-K1 (HitHunter) cells; read-out: Average pEC50 [Receptor subtype: B2-AR; Cell type: CHO-K1 (HitHunter)] (converted)
Sequence (P07550 whole entry): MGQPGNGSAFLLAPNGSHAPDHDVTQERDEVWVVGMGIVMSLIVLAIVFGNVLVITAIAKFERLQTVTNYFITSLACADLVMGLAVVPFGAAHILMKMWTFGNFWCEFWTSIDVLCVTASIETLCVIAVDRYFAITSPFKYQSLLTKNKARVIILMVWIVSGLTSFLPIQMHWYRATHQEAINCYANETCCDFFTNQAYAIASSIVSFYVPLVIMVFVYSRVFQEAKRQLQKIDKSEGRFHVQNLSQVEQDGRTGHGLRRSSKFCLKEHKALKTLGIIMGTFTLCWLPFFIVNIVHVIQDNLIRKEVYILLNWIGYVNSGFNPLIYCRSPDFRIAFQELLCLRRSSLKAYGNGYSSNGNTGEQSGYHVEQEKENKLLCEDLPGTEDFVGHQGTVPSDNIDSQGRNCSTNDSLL
Parameter: EC50. Scope: all listed entries.

A selection of reference data follows.
[[record]]
compound = "CC(C)(C)NC[C@H](O)c1cccc2c(C(F)(F)F)ccnc12"
measurement = "100 to 1000 nM"

[[record]]
compound = "Cc1ccnc2c([C@H](O)CNC(C)(C)C)cccc12"
measurement = "100 to 1000 nM"

[[record]]
compound = "CC(C)(C)NC[C@H](O)c1c(Cl)ccc2[nH]ncc12"
measurement = "> 1000 nM"


Look up EC50: "CC(C)(C)NC[C@H](O)c1cccc2c1CCCC(=O)N2"
10 to 100 nM

Again, but for "Cc1nc(N)c(C#N)cc1[C@@H](O)CNC(C)(C)C"
100 to 1000 nM

Same for "CC(C)(C)NC[C@H](O)c1ccc2nn[nH]c2c1"
10 to 100 nM

Also need "CC(C)(C)NC[C@H](O)c1nccc2[nH]ncc12" , thanks.
> 1000 nM

Next: "CC(C)(C)NC[C@@H](O)c1ccc2cccc(Cl)c2n1"
10 to 100 nM

How about this compound: CC(C)(C)NCC(O)c1ccc2ccc(C(F)(F)F)cc2[n+]1[O-] (stereo not drawn)
10 to 100 nM

====

molecular target: β1-adrenergic receptor (B1-AR) (Homo sapiens, UniProt P08588); construct: expressed in transfected cells; test: cAMP Gs dynamic HTRF assay, cells expressing β1-adrenergic receptor; type: cell-based; conditions: CHO-K1 (HitHunter) cells; read-out: Average pEC50 [Receptor subtype: B1-AR; Cell type: CHO-K1 (HitHunter)] (converted)
Sequence (P08588 whole entry): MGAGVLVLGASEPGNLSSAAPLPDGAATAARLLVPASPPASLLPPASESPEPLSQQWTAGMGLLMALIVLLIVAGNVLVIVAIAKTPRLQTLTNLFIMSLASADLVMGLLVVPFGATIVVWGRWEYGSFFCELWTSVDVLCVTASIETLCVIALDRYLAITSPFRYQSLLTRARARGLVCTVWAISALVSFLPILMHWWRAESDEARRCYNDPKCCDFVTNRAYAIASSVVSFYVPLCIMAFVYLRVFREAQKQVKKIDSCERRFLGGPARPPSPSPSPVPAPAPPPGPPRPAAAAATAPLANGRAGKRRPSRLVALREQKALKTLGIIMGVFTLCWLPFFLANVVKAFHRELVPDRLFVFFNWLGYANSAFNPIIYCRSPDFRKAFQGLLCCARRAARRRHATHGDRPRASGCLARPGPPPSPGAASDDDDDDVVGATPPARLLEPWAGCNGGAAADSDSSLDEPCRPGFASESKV
# EC50 per entry

[[record]]
compound = "CC(C)(C)NC[C@H](O)c1cccc2nccnc12 [Compound 04-75]"
measurement = "< 10 nM"

[[record]]
compound = "CC(C)(C)NC[C@H](O)c1cccc2[nH]cc(F)c12 [Compound 04-112]"
measurement = "< 10 nM"

[[record]]
compound = "CC(C)(C)NC[C@H](O)c1ccnc2[nH]c(=O)ccc12 [Compound 04-13]"
measurement = "10 to 100 nM"

[[record]]
compound = "CC(C)(C)NC[C@H](O)c1cccc2c1C1(CC1)C(=O)N2 [Compound 04-103]"
measurement = "100 to 1000 nM"

[[record]]
compound = "CC1(NC[C@H](O)c2cc(F)cc3[nH]ncc23)CC1 [Compound 04-147]"
measurement = "< 10 nM"


Now consider the entry below.
I have this compound here, Cc1cc(N)nc([C@@H](O)CNC(C)(C)C)c1 [Compound 02-13] , and I need its recorded EC50.
10 to 100 nM

====

The reader will find reported EC50 values listed item by item below.
target: β2-adrenergic receptor (B2-AR) (Homo sapiens); construct: expressed in transfected cells; test: cAMP Gs dynamic HTRF assay, cells expressing β2-adrenergic receptor; type: cell-based; details: CHO-K1 (HitHunter) cells; read-out: Average pEC50 [Receptor subtype: B2-AR; Cell type: CHO-K1 (HitHunter)] (converted)

These solved cases illustrate the format of a correct answer.
[[record]]
molecule = "CC(C)CNC[C@H](O)c1cccc2[nH]c(=O)ccc12"
measurement = "0.01 to 0.1 µM"

[[record]]
molecule = "CC(C)(C)NC[C@H](O)c1cccc2[nH]cnc12"
measurement = "0.01 to 0.1 µM"

[[record]]
molecule = "CC(C)(C)NC[C@H](O)c1ccc2[nH]ncc2c1"
measurement = "> 1 µM"


We now examine a further molecule.
Query: EC50; subject: "Cc1ccc2[nH]ncc2c1[C@@H](O)CNC(C)(C)C"
0.1 to 1 µM
